Biological target: T1, GST–PPARγ fusion protein (purified ligand binding domain of PPARγ)
T1 chain: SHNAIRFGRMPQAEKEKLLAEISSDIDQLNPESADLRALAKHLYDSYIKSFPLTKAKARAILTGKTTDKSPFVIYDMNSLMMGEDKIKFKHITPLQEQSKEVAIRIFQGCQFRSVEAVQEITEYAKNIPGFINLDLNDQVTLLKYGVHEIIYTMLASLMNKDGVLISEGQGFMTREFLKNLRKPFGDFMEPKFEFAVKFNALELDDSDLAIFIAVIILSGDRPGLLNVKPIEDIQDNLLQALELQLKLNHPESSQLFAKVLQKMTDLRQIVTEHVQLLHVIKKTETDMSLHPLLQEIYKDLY
Assay: FRET or BRET; homogeneous TR-FRET as a1, 12-concentration dose–response of edaglitazone; the EC50 is of the compound; delta ratio in % of the reference compound at 10 μM (RO4899100 for PPARα, edaglitazone for PPARγ)
Details: both partners purified
Where no end group is shown, it is not given here. The star is where a group is joined. Biotin = O=C1N[C@H]2[C@H](CS[C@H]2CCCCC(=O)*)N1; Ahx = NCCCCCC(=O)O
RECORDED_METRIC: EC50 of edaglitazone for recruitment (nM)

BINDER: {Biotin-Ahx}-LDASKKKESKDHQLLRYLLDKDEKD (source: synthetic peptide (Jerini or Biosynthan, Berlin)) [SRC1_M3 cofactor peptide (steroid receptor co-activator 1, motif 3)]
UNITS_TEXT: nM
EC50 of edaglitazone for recruitment: 38.1
--
BINDER: {Biotin-Ahx}-SGNLVPDAASKHKQLSELLRGGSGS (source: synthetic peptide (Jerini or Biosynthan, Berlin)) [CBP cofactor peptide (cAMP responsive element binding protein (CREB)-binding protein)]
UNITS_TEXT: nM
EC50 of edaglitazone for recruitment: 7.2
--
BINDER: {Biotin-Ahx}-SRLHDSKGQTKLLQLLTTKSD (transcriptional intermediary factor 2 (TIF2), motif 1, residues 630-650; source: synthetic peptide (Jerini or Biosynthan, Berlin)) [TIF2_M1 cofactor peptide (transcriptional intermediary factor 2, motif 1)]
UNITS_TEXT: nM
EC50 of edaglitazone for recruitment: 86.5

(I) {Biotin-Ahx}-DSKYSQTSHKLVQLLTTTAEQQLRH (source: synthetic peptide (Jerini or Biosynthan, Berlin)) [SRC1_M1 cofactor peptide (steroid receptor co-activator 1, motif 1)]
(II) {Biotin-Ahx}-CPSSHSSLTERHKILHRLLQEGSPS (source: synthetic peptide (Jerini or Biosynthan, Berlin)) [SRC1_M2 cofactor peptide (steroid receptor co-activator 1, motif 2)]
Q. Could you determine which record has the numerically smaller EC50 of edaglitazone for recruitment? Candidates: I and II Bench note: the answer is the label of the chosen record.
A. II
